Here the recorded IC50 is given for each entry.
EXPERIMENTAL_SYSTEM: Recombinant human cathepsin A (Homo sapiens, UniProt P10619)
Construct: Recombinant human cathepsin A (residues 29-480, with a C-terminal 10-His tag); 10-His (C); purchased R&D Systems 1049-SE
Sequence (P10619 29-312 limits assumed): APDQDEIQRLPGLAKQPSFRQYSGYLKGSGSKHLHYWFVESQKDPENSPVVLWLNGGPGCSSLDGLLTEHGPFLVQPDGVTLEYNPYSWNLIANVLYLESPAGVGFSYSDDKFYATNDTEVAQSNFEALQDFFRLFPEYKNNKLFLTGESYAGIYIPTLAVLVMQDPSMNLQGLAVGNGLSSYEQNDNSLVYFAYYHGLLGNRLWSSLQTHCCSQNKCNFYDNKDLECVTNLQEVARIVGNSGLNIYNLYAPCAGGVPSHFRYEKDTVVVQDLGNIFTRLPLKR
Sequence (P10619 327-480 limits assumed): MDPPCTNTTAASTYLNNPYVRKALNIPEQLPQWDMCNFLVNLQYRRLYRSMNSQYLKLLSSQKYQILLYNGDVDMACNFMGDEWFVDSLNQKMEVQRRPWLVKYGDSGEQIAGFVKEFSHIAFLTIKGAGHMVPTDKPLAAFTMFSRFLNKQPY
PROTOCOL_NOTES: Cathepsin A inhibitory activity
Format: biochemical
RECORDED_CONDITIONS: read-out: Activity (2): Cathepsin A inhibitory activity (IC50 class)
From the text: a) Cathepsin A Inhibitory Activity Recombinant human cathepsin A (residues 29-480, with a C-terminal 10-His tag; R&D Systems, #1049-SE) was proteolytically activated with recombinant human cathepsin L (R&D Systems, #952-CY). […] Uncleaved substrate and product were then separated by a microfluidic capillary electrophoresis on a LabChip® 3000 Drug Discovery System (12-Sipper-Chip; Caliper Life Sciences) and quantified by determination of the respective peak areas. […]
MEASURED_PARAMETER: IC50

COMPOUND | EXPERIMENTAL_SYSTEM | RESULT
COc1c(F)c(C(=O)N[C@@H](CC(=O)O)c2ccccc2C)nn1-c1ccccc1F [Example 595] | Recombinant human cathepsin A (Homo sapiens, UniProt P10619) | < 100 nM
Cc1ccccc1[C@H](CC(=O)O)NC(=O)c1cc(OCC(C)O)n(-c2ccccc2F)n1 (stereo partly drawn) [Example 749] | Recombinant human cathepsin A (Homo sapiens, UniProt P10619) | < 100 nM
O=C(O)C[C@H](NC(=O)c1cc(OCC2CC2)n(-c2ccccc2F)n1)c1ccc(C(F)(F)F)cc1 [Example 694] | Recombinant human cathepsin A (Homo sapiens, UniProt P10619) | < 100 nM
CCOc1cc(C(=O)N[C@@H](CC(=O)O)c2ccc(C#N)cc2)nn1-c1ccccc1F [Example 710] | Recombinant human cathepsin A (Homo sapiens, UniProt P10619) | 100 to 1000 nM
Cc1ccccc1[C@H](CC(=O)O)NC(=O)c1cc(O)n(-c2ccccc2S(C)(=O)=O)n1 [Example 607] | Recombinant human cathepsin A (Homo sapiens, UniProt P10619) | 1000 to 30000 nM
Cc1ccc([C@H](CC(=O)O)NC(=O)c2cc(OC[C@@](C)(O)C(C)C)n(-c3ccccc3F)n2)c(C)c1 [Example 772] | Recombinant human cathepsin A (Homo sapiens, UniProt P10619) | < 100 nM

====

Parameter: pIC50. Scope: all listed entries.
EXPERIMENTAL_SYSTEM: Recombinant human cathepsin A (Homo sapiens)
Construct: Recombinant human cathepsin A (residues 29-480, with a C-terminal 10-His tag); 10-His (C); purchased R&D Systems 1049-SE
PROTOCOL_NOTES: Cathepsin A inhibitory activity
Assay type: biochemical
RECORDED_CONDITIONS: pharmacological test "Cathepsin A inhibitory activity"; IC50 given as class A/B/C; read-out: Activity (2): Cathepsin A inhibitory activity, IC50 class
pIC50: −log10 of the molar value.

MOLECULE | pIC50
O=C(O)CC(NC(=O)c1cc(O)n(-c2ccc(F)cc2F)n1)c1ccc(Oc2ccccc2)cc1 (stereo not drawn) | 6.00 to 7.00
COc1cccc(-c2ccc(C(CC(=O)O)NC(=O)c3cc(O)n(-c4ccccc4Cl)n3)cc2)c1 (stereo not drawn) | 6.00 to 7.00
Cc1cc(F)ccc1C(CC(=O)O)NC(=O)c1cc(O)n(-c2ccccc2F)n1 (stereo not drawn) | 6.00 to 7.00
O=C(O)CC(NC(=O)c1cc(O)n(-c2cccc(Cl)c2)n1)c1cccc2c1OCO2 (stereo not drawn) | 6.00 to 7.00
Cc1ccccc1[C@H](CC(=O)O)NC(=O)c1cc(O)n(-c2cccnc2)n1 | 4.52 to 6.00
O=C(O)C[C@H](NC(=O)c1cc(O)n(-c2ccccc2)n1)c1ccc(F)cc1 | 6.00 to 7.00
